- Tested on: HCT-15 human colon cancer spheroids
- experimental protocol: 3D spheroid cell viability, acid phosphatase (APH) assay, HCT-15
- Format: cell-based
- details: HCT-15 spheroids, 72 h, APH test; read-out: IC50 (μM) ± SD HCT-15
- Procedure: In order to improve the predictive capacity of the in vitro assays, we tested HydroCuP activity in two 3D cell cultures of human colon cancer cells, HCT-15 and LoVo. The colon cancer spheroids were treated with HydroCuP for 72 h and the cell viability was assessed by means of the acid phosphatase (APH) assay (Fig. 1, panel A). Figure 1 Activity in 3D cell cultures. […] The growth inhibitory effect was evaluated by means of APH test. […]
Some compounds, each annotated with its measured IC50.
Reply numerically in µM, unit not repeated.

Example results:
compound: [NH2][Pt]([NH2])([Cl])[Cl] [CDDP, cisplatin, reference compound]
readout label: IC50
result value: 68.2

compound: F[P-](F)(F)(F)(F)F.OC[P+](CO)(CO)[Cu-3]([P+](CO)(CO)CO)([P+](CO)(CO)CO)[P+](CO)(CO)CO [HydroCuP, [Cu(thp)4][PF6]]
readout label: IC50
result value: 27

Now examine the next entry.
Field request: IC50 | item: `O=C1[O][Pt]2([NH][C@@H]3CCCC[C@H]3[NH]2)[O]C1=O`
30.2
